Attribution: patent US9796672B2

# MEASURED_TARGET: Sigma-2 receptor
# EXPERIMENTAL_DETAILS: Sigma-2 receptor competitive radioligand binding assay
# REPORTED_CONDITIONS: read-out: Sigma-2 Receptor Affinity, Ki
Kindly supply the reported Ki values for the records listed here.

Here are 3 compounds together with their reported answers.
[
  {
    "COMPOUND": "COc1cc(CC[C@@H](C)N2Cc3ccc(Cl)cc3C2)ccc1O [compound 1]",
    "MEASURED_TARGET": "Sigma-2 receptor",
    "Ki": "25 nM"
  },
  {
    "COMPOUND": "C[C@H](CCc1ccc(O)c(OC(F)(F)F)c1)N1Cc2ccc(F)cc2C1 [compound 31]",
    "MEASURED_TARGET": "Sigma-2 receptor",
    "Ki": "58 nM"
  },
  {
    "COMPOUND": "COc1ccc(CCC(C)(C)N2Cc3ccc(S(C)(=O)=O)cc3C2)cc1OC [compound 101]",
    "MEASURED_TARGET": "Sigma-2 receptor",
    "Ki": "11 nM"
  }
]

Now look at this one.
Quick check: Ki of CC(=O)Oc1ccc(CCC(C)(C)N2Cc3ccc(S(C)(=O)=O)cc3C2)cc1OC(C)(C)C [compound 96] ?
6.6 nM

---

# EXPERIMENTAL_DETAILS: Mouse liver microsome (MLM) stability
# Format: in vitro ADME
# REPORTED_CONDITIONS: mouse, microsomes
# Protocol: A first pharmacokinetic study was performed in microsomes of mice mouse liver microsomes, MLM) by a commercial contract research organization. The studies were performed according to Obach, R. S et al. (1997) J. Pharmacol. Exp. Ther., 283: 46-58, which is incorporated herein by reference.
Decide using Mouse liver microsomes, MLM t½: a value greater than or equal to 7 min is MET, a smaller one is NOT MET.

[
  {
    "COMPOUND_SMILES": "CC(C)COc1cc(CCC(C)(C)N2Cc3cccc(C(=O)N4CCN(C)CC4)c3C2)ccc1O",
    "ASSIGNED_CLASS": "NOT MET"
  }
]

Consider the additional molecule presented here.
Decide: Mouse liver microsomes, MLM t½ of "COc1cc(CCC(C)(C)N2Cc3cccc(C(=O)N4CCN(C)CC4)c3C2)ccc1O" >= 7 min?
MET

---

# MEASURED_TARGET: Sigma-1 receptor
# EXPERIMENTAL_DETAILS: Sigma-1 receptor competitive radioligand binding assay
# REPORTED_CONDITIONS: read-out: Sigma-1 Receptor Affinity, Ki
Kindly supply the reported pKi values for the records listed here.
Answers are plain numbers, as −log10 of the molar value.

Here are 4 compounds together with their reported answers.
[
  {
    "COMPOUND": "COc1cc(CC[C@@H](C)N2Cc3ccc(Cl)cc3C2)ccc1O",
    "pKi": 7.51
  },
  {
    "COMPOUND": "CC(C)Oc1cc(CC[C@@H](C)N2Cc3ccc(F)cc3C2)ccc1O",
    "pKi": 8.04
  },
  {
    "COMPOUND": "CN(C)C(=O)c1cccc2c1CN(C(C)(C)CCc1ccc(O)c(OC(F)(F)F)c1)C2",
    "pKi": 6.15
  },
  {
    "COMPOUND": "C[C@H](CCc1ccc(O)c(OC(C)(C)C)c1)N1Cc2c(F)ccc(F)c2C1 [60A]",
    "pKi": 6.39
  }
]

Please give pKi, item by item, for the list that follows.
1. COc1cc2c(cc1OC)CN([C@H](C)CCc1ccc(Cl)c(Cl)c1)C2
2. CC(C)Oc1cc(CC[C@@H](C)N2Cc3ccc(S(C)(=O)=O)cc3C2)ccc1O
3. COc1cc(CC[C@@H](C)N2Cc3cc(OC)c(OC)cc3C2)ccc1O
4. COc1cc2c(cc1OC)CN(C(C)(C)CCc1ccc(F)cc1)C2
5. COc1cc(CCC(C)(C)N2Cc3ccc(F)cc3C2)ccc1OCCO

1. 7.85
2. 7.57
3. 7.38
4. 8.12
5. 5.55

---

# MEASURED_TARGET: Sigma-1 receptor
# EXPERIMENTAL_DETAILS: Sigma-1 receptor competitive radioligand binding assay
# REPORTED_CONDITIONS: read-out: Sigma-1 Receptor Affinity, Ki
// assign Fulfilled if Ki falls strictly below 0.8 µM, else Not fulfilled (ties count as Not fulfilled)

Look over these answered cases.
[
  {
    "COMPOUND": "COc1cc(CC[C@@H](C)N2Cc3ccc(S(C)(=O)=O)cc3C2)ccc1O [compound 68]",
    "ASSIGNED_CLASS": "Fulfilled"
  },
  {
    "COMPOUND": "CC(C)(CCc1ccc(O)c(OC(F)(F)F)c1)N1Cc2cccc(C(=O)O)c2C1 [compound 56]",
    "ASSIGNED_CLASS": "Not fulfilled"
  }
]

Determine whether this compound shows Ki lower than 0.8 µM (ties excluded): CC(C)Oc1ccc(CCC(C)(C)N2Cc3ccc(F)cc3C2)cc1OC(C)C [compound 42]
Fulfilled

Determine whether this compound shows Ki lower than 0.8 µM (ties excluded): COc1cc(CCC(C)(C)N2Cc3cccc(C(=O)NCCO)c3C2)ccc1O [compound 79]
Not fulfilled

Determine whether this compound shows Ki lower than 0.8 µM (ties excluded): COc1cc(CCC(C)(C)N2Cc3cccc(C(=O)N(C)CCO)c3C2)ccc1O [compound 85]
Not fulfilled

Determine whether this compound shows Ki lower than 0.8 µM (ties excluded): COc1cc2c(cc1OC)CN(C(C)(C)CCc1ccc(OCCO)c(OC)c1)C2 [compound 48]
Not fulfilled

Determine whether this compound shows Ki lower than 0.8 µM (ties excluded): COc1cc(CCC(C)(C)N2Cc3ccc(F)cc3C2)ccc1OC(=O)N(C)C [compound 50]
Fulfilled

Determine whether this compound shows Ki lower than 0.8 µM (ties excluded): C[C@H](CCc1ccc(F)cc1)N1Cc2ccc(F)cc2C1 [compound 22]
Fulfilled

Determine whether this compound shows Ki lower than 0.8 µM (ties excluded): COCCN(C)C(=O)c1cccc2c1CN(C(C)(C)CCc1ccc(O)c(OC)c1)C2 [compound 86]
Not fulfilled

---

# Test system: neuronal cultures
# EXPERIMENTAL_DETAILS: Functional neuronal phenotype in neuronal cultures
# Assay type: cell-based
# Set-up: key: Antagonist: antagonists (block Abeta signaling); Agonist: agonists (block Abeta signaling with U-shaped dose-response curve and toxicity at high doses); Inactive: inactive (no effect in neuronal cultures)
OBSERVATION_TYPE: neuronal phenotype

Here are 4 compounds together with their reported answers.
[
  {
    "COMPOUND_SMILES": "CC(C)(CCc1ccc(O)c(OC(F)(F)F)c1)N1Cc2ccc(S(C)(=O)=O)cc2C1",
    "neuronal phenotype": "Antagonist"
  },
  {
    "COMPOUND_SMILES": "C[C@H](CCc1ccc(Cl)c(Cl)c1)N1Cc2ccc3ccccc3c2C1",
    "neuronal phenotype": "Weak"
  },
  {
    "COMPOUND_SMILES": "CC(C)(CCc1ccc(F)cc1)N1Cc2ccc(F)cc2C1",
    "neuronal phenotype": "Antagonist"
  },
  {
    "COMPOUND_SMILES": "COc1cc(CC[C@@H](C)N2Cc3cc4c(cc3C2)OCO4)ccc1OCCO",
    "neuronal phenotype": "Antagonist"
  }
]

Now look at this one.
Quick check: neuronal phenotype of "COc1ccc(CCC(C)(C)N2Cc3cccc(C(=O)N4CCNCC4)c3C2)cc1OC" ?
Antagonist

---

# Tested on: neuronal cultures
# EXPERIMENTAL_DETAILS: Functional neuronal phenotype in neuronal cultures
# Assay type: cell-based
OBSERVATION_TYPE: neuronal phenotype

Here are 5 compounds together with their reported answers.
[
  {
    "COMPOUND_SMILES": "COc1cc(CC[C@@H](C)N2Cc3cc(Cl)c(Cl)cc3C2)ccc1O",
    "ENDPOINT_RESULT": "Neuroactive"
  },
  {
    "COMPOUND_SMILES": "CC(C)(C)Oc1cc(CCC(C)(C)N2Cc3ccc(S(C)(=O)=O)cc3C2)ccc1O",
    "ENDPOINT_RESULT": "Antagonist"
  },
  {
    "COMPOUND_SMILES": "COc1cccc(CCC(C)(C)N2Cc3ccc(S(C)(=O)=O)cc3C2)c1",
    "ENDPOINT_RESULT": "Inactive"
  },
  {
    "COMPOUND_SMILES": "COc1cc(CCC(C)(C)N2Cc3cccc(F)c3C2)ccc1O",
    "ENDPOINT_RESULT": "Inactive"
  },
  {
    "COMPOUND_SMILES": "COc1cc(CC[C@@H](C)N2Cc3cccc(S(C)(=O)=O)c3C2)ccc1O",
    "ENDPOINT_RESULT": "Neuroactive"
  }
]

Please give neuronal phenotype, item by item, for the list that follows.
1. CC(C)(CCc1ccc2[nH]ncc2c1)N1Cc2cccc(C(=O)N3CCNCC3)c2C1
2. COc1cc(CC[C@@H](C)N2Cc3ccc(F)cc3C2)ccc1OCCO
3. COc1cc2c(cc1OC)CN([C@H](C)CCc1ccc(Cl)c(Cl)c1)C2

["Inactive", "Antagonist", "Antagonist"]
